Data origin: PubChem BioAssay AID589

# protocolDescription: qHTS Assay for Spectroscopic Profiling in 4-MU Spectral Region
# experimentalSetup: compound autofluorescence, 340/450 nm, 4-MU equivalents
Among all 59,000 compounds or so, about 6,200 (11%) were called active. Inconclusive results (about 9%) are left out. Cut-off read from the data, not from the text of the source: active = max dye-equivalent concentration above about 10 nM; inconclusive = mostly about 1.1 nM to 9.6 nM; inactive = weaker than that. For the sample, actives were picked, then their nearest neighbours and some compounds at random.
Write down one outcome, taken from active, inactive

Any idea what this test logged for CC(C)CNC(=O)C1CCCN(S(=O)(=O)c2ccc(-n3cnnn3)cc2)C1 (configuration not stated) ?
inactive

Any idea what this test logged for `CCOc1ccc(OCC)c(NC(=O)CSc2nnc(Cn3cnc4ccccc43)n2C)c1` ?
inactive

Any idea what this test logged for `COc1ccccc1NC(=O)c1ccc(C)s1` ?
inactive

Any idea what this test logged for `CCOC(=O)c1cc2ccccc2nc1C` ?
inactive

Any idea what this test logged for COC(=O)C1=C(N)Oc2cc(C)oc(=O)c2C1c1cccnc1 (configuration not stated) ?
inactive

Any idea what this test logged for O=C(NCc1ccc2c(c1)OCO2)c1ccc2c(c1)C(=O)N(CC1CCCO1)C2=O (configuration not stated) ?
inactive

Any idea what this test logged for COc1ccccc1NC(=O)C1=C(C)Nc2ncnn2C1c1ccc(C)o1 (configuration not stated) ?
inactive

Any idea what this test logged for `COc1ccc(Cc2nnc(NS(=O)(=O)Cc3ccccc3)s2)cc1` ?
inactive

Any idea what this test logged for `O=c1[nH]c(-c2ccccc2)c(-c2ccccc2)[nH]1` ?
active

Any idea what this test logged for `Cc1nc2ccccc2cc1O` ?
active

Any idea what this test logged for `Cc1cc(O)ccc1-c1cnc2ccccc2n1` ?
inactive

Any idea what this test logged for `Cc1ccc(NC(=O)Cn2nc(C)c3ccccc3c2=O)c(C)c1` ?
inactive
